Reference source: patent US20210403601A1

Target: T1, Taq DNA polymerase (Thermus aquaticus, UniProt P19821 1-832)
T1 construct: also called Taq enzyme; Taq DNA enzyme
T1 sequence (P19821 whole entry): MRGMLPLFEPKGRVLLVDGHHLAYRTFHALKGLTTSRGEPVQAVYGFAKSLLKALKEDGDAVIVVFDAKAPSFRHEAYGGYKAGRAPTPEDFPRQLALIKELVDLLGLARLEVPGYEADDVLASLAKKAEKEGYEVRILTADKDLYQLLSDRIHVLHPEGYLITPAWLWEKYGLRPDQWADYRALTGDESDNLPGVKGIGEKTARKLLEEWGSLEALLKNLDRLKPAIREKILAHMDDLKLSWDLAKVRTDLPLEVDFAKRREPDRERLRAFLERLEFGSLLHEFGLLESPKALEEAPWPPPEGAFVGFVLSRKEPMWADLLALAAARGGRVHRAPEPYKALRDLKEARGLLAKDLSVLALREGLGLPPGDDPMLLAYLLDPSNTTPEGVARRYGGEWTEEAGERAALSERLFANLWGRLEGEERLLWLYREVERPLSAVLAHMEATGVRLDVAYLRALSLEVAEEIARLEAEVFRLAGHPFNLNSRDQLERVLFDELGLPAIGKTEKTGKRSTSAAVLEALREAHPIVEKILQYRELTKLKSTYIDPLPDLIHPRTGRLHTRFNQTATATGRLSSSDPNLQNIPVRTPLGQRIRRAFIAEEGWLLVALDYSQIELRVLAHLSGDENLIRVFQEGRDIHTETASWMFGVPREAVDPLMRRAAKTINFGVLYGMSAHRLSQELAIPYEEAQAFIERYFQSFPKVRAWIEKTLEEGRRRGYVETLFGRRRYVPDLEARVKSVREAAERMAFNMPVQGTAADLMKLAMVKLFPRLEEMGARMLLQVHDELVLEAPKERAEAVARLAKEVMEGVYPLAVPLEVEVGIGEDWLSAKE
Experiment: AMC sensor, antibody immobilised
Recorded endpoint: kon (M⁻¹ s⁻¹)
Give bare numbers, in M⁻¹ s⁻¹.

Here are 2 binders together with their reported answers.
{"Binder": "Mutation 1-54 (antibody, V domains shown, Mutation 1 background; CDRs built) VH: QVQLQQPGAELVKPGASVRLSCQTSVNTFTTYYIYWVKQRPGEGLEWIGGLNPTSNPVFNEKFKSKATLTVDTSSSTAYMQLSSLTSVDSAVYYCTRSILRRGYYFDYWGQGTALTVSS VL: DIQMTQTTSSLSASLGDRVTISCRASQDIQNYVNWYQQKPDGTIKLLIYYTSRLNSGVPSRFSGSGSGTDYSLTIANLEQEDIATYFCQQDDTIPVTFGAGTKVELKR", "Unit abbreviation": "M⁻¹ s⁻¹", "kon": 37200}
{"Binder": "Mutation 1-12 (antibody, V domains shown, Mutation 1 background; CDRs built) VH: QVQLQQPGAELVKPGASVRLSCQTSVDTFSTYYIYWVKQRPGEGLEWIGGVNPTSNPVFNEKFKSKATLTVDTSSSTAYMQLSSLTSVDSAVYYCTRSVLRRGYYFDYWGQGTALTVSS VL: DIQMTQTTSSLSASLGDRVTISCRASQDIQNYVNWYQQKPDGTIKLLIYYTSRLHSGIPSRFSGSGSGTDYSLTIANLEQEDIATYFCQQDDTVPVTFGAGTKVELKR", "Unit abbreviation": "M⁻¹ s⁻¹", "kon": 93400}

# input for lookup
**Q:** # get_value(readout='kon', item= Mutation 1-2 (antibody, V domains shown, Mutation 1 background; CDRs built) VH: QVQLQQPGAELVKPGASVRLSCQTSVETFSTYYIYWVKQRPGEGLEWIGGLNPTSNPVFNEKFKSKATLTVDTSSSTAYMQLSSLTSVDSAVYYCTRSIIRRGYYFDYWGQGTALTVSS VL: DIQMTQTTSSLSASLGDRVTISCRASQDIQNYLNWYQQKPDGTIKLLIYYTSRLQSGLPSRFSGSGSGTDYSLTIANLEQEDIATYFCQQDDTIPLTFGAGTKVELKR )
**A:** 49700
